B1: Caulobacter ParB omega fusion; a variant is named by its letters at X, in order, B8GW30 (parent)
chain: MESVVVGEPGMSEGRRGLGRGLSALLGEVDAAPAQAPGEQLGGSREAPIEILQRNPDQPRRTFREEDLEDLSNSIREKGVLQPILVRPSPDTAGEYQIVAGERAWRAAQRAGLKTVPIMVRELDDLAVLEIGIIENVQRADLNVLEEALSYKVLMEKFERTQENIAQTIGKSXSHVANXMRLLXLPDEVQSYLVSGELTAXHARAIAAAADPVALAKQIIEGGLSVRETEALARKAPNLSAGKSKGGRPPRVKDTDTQALESDLSSVLGLDVSIDHRGSTGTLTITYATLEQLDDLCNRLTRGI

variants of: B1; assay: one-hybrid fitness for binding NBS DNA (the Noc-binding site; scaled: cognate 1, non-cognate 0); higher = stronger binding; conditions: with NBS DNA site
In all, about 81,000 sequences were measured (“one-hybrid fitness for binding NBS DNA”: median about -0.1, highest 2% from about 0.36 on). This excerpt belongs to a sample that is enriched for the highest values.
This listing pairs variants with measured one-hybrid fitness for binding NBS DNA.
measured metric: one-hybrid fitness for binding NBS DNA

1. QIMT : 0.219
2. QTRH : 0.695
3. RINT : 0.554
4. QRMT : 0.729
5. QRMC : 0.333
6. QLMT : 0.34
7. QQPT : 0.379
8. QQIT : 0.389
9. RTDT : 0.284
10. RCDT : 0.266
11. RCYT : 0.517
12. RTVS : 0.39
13. RTRY : 0.38
14. RSRT : 0.602
15. QTYH : 0.271
16. QAMT : 0.346
17. RTKH : 0.651
18. RSYT : 0.322
19. QQPS : 0.26
20. RTNT : 0.636
21. RANT : 0.496
22. QKMT : 0.424
